Task for the reader: assign each of the following binders its reported pKd.
# target.system: T1, rhesus serum albumin (rhesus, UniProt Q28522 17-600)
# T1 construct: also called RhSA
# assay.remarks: SPR, single cycle kinetics, pH 5.5
pKd (log units): -log10 of the concentration in mol/L.

Record summary for H18-H1 (VHH) VHH: EVQLVESGGGLVQPGGSLRLSCAASGSIESINRMAWYRQAPGKGLEFVSRISKGGSTNYPDSVKGRFTISRDNSKNTLYLQMNSLRAEDTAVYYCAAGPVWEQFWGQGTLVTVSS : reported pKd = 7.04

Quick note, pKd for R11-H5 (VHH) VHH: QVQLVESGGGLVQPGGSLRLSCAGPGFLLRSNTMGWYRQAPGKERELVAFIRPSGLTNYNDAVQGRFTISRDNSKNTLYLQMNSLRAEDTAVYYCHTRPPFQRDSWGQGTLVTVSS landed at 6.28

Recorded result, Rh34-H4 (VHH) VHH: QVQLVESGGGLVQPGGSLRLSCAASGRTISLYAVGWFRRAPGKEREFVAAISWTDSSTYYADSVKGRFTISRDNSKNTLYLQMNSLRAEDTAVYYCAADVSIRGLQKYEYDYWGQGTLVTVSS , pKd: 5.65

// sample M79-H3 (VHH) VHH: EVQLVESGGGLVQPGGSLRLSCAASGSTFSSSSVGWYRQAPGKQRELVSAITSGGSTNTADSVKGRFTISRDNSKNTLYLQMNSLRAEDTAVYYCNVAGRNWVPISRYSPGPYWGQGTLVTVSS , its pKd was 8.54

Consider Rh46-H1 (VHH) VHH: EVQLVESGGGLVQPGGSLRLSCAASTRTFSSYIMGWFRQAPGKGLELVSAISWSGRMTHYADSVKGRFTISRDNSKNTLYLQMNSLRAEDTAVYYCAADRTTAWGAPRSQYDSWGQGTLVTVSS . Its measured pKd is 7.39

Per the records, this binder ( Rh46-H3 (VHH) VHH: QVQLVESGGGLVQPGGSLRLSCAASTRTFSSYIMGWFRQAPGKERELVAAISWSGRMTHYADSVKGRFTISRDNSKNTLYLQMNSLRAEDTAVYYCAADRTTAWGAPRSQYDSWGQGTLVTVSS ) has pKd equal to 7.47

Value of measured pKd for the entry H18-H5 (VHH) VHH: QVQLVESGGGLVQPGGSLRLSCAASGSIESINRMAWYRQAPGQQREFVARISKGGSTNYPDSVKGRFTISRDNAKNTVYLQMNSLRAEDTAVYYCAAGPVWEQFWGQGTLVTVSS : 7.15

Entry R28-H5 (VHH) VHH: QVQLVESGGGLVQPGGSLRLSCAASGRTFIAYAMGWFRQAPGKEREFVAAITNFAGGTTYYADSVKGRFTISRDNAKTTVYLQMNSLRAEDTAVYYCAADRSAQTMRQVRPVLPYWGQGTLVTVSS ; pKd = 8.14

Lab book: pKd of Rh34-H1 (VHH) VHH: EVQLVESGGGLVQPGGSLRLSCAASGRTISLYAVGWFRQAPGKGLEFVSAISWTDSSTYYADSVKGRFTISRDNSKNTLYLQMNSLRAEDTAVYYCAADVSIRGLQKYEYDYWGQGTLVTVSS noted as 5.72

Measured pKd of R11 sdAb (VHH, also called R11 VHH) VHH: QVKLEESGGGLVQAGGSLRLSCVGPGFLLRSNTMGWYRQAPGKERELVAFIRPSGLTNYNDAVQGRFTISRDNAKNTVYLQMNALKPEDTAVYYCHTRPPFQRDSWGQGTQVTVSS : 6.94

Per the record, R28-H1 (VHH) VHH: EVQLVESGGGLVQPGGSLRLSCAASGRTFIAYAMGWFRQAPGKGLEFVSAITNFAGGTTYYADSVKGRFTISRDNSKNTLYLQMNSLRAEDTAVYYCAADRSAQTMRQVRPVLPYWGQGTLVTVSS has pKd of 7.54

// H18 sdAb (VHH, also called H18 VHH) VHH: QVQLVESGGGLVQAGGSLRLSCTASGSIESINRMAWYRQAPGQQREFVARISKGGSTNYPDSVKGRFTISRDNAKNTVYLQMNSLKPEDTAVYYCAAGPVWEQFWGQGTQVTVSS : pKd value = 7.37

Value of pKd reported for the binder H18-H4 (VHH) VHH: QVQLVESGGGLVQPGGSLRLSCAASGSIESINRMAWYRQAPGQQREFVARISKGGSTNYPDSVKGRFTISRDNSKNTLYLQMNSLRAEDTAVYYCAAGPVWEQFWGQGTLVTVSS is 7.14

// pKd value for R28-H4 (VHH) VHH: QVQLVESGGGLVQPGGSLRLSCAASGRTFIAYAMGWFRQAPGKEREFVAAITNFAGGTTYYADSVKGRFTISRDNAKTTLYLQMNSLRAEDTAVYYCAADRSAQTMRQVRPVLPYWGQGTLVTVSS : 6.47

response.value for R28-H2 (VHH) VHH: EVQLVESGGGLVQPGGSLRLSCAASGRTFIAYAMGWFRQAPGKEREFVSAITNFAGGTTYYADSVKGRFTISRDNSKNTLYLQMNSLRAEDTAVYYCAADRSAQTMRQVRPVLPYWGQGTLVTVSS (field: pKd) = 6.18
